# Test system: Fer (mouse);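 note: 11-residue human phosphosite peptides and single-mutation variants displayed on the E. coli surface, counted by deep sequencing, each peptide's frequency after selection divided by its frequency in the unselected input library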;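 note: frequency after pTyr selection over input frequency; kinase dosed for 20-30% of maximal phosphorylation in three min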
# EXPERIMENTAL_DETAILS: phosphorylation enrichment, bacterial display (enrichment ratio); higher = better substrate or ligand; peptides without Tyr show the background
The entries below come with measured phosphorylation enrichment values attached.
Answer with a bare number; do not write a unit.

PRIMARY_SEQUENCE | phosphorylation enrichment
DAVCYYRMENA [NPHS2_Y195_I192V] | 0.704
SLDLSYFTTSS [EMD_Y181_P183T_YF] | 0.37
RLLVVYRWTQR [HBB_Y36_P37R] | 0.711
VHNLDYFKKTT [FGFR3_Y647_YF] | 0.428
VIVRMYDFHVL [RPF2_Y109_G106V_YF] | 4.04

Using known records, supply phosphorylation enrichment for GSSSSYGQHGS [HRNR_Y517] 0.316

Using known records, supply phosphorylation enrichment for FGGLRYGFGGL [KRTAP20-2_Y13_V17G_YF] 0.431
